Target: Prostaglandin E2 receptor EP3 subtype (Homo sapiens)
Experiment: Ratio IC50 for human EP3 receptor in presence of human serum to IC50 for human EP3 in absence of human serum
We use 40 as the dividing line for Ratio IC50: on or above the line is Condition met, below is Condition not met.

>  <compound-string>
Cn1cc(/C=C/C(=O)NS(=O)(=O)c2ccccc2F)c2c(Oc3ccc4ccccc4c3)cccc21

>  <test-system>
Prostaglandin E2 receptor EP3 subtype (Homo sapiens)

>  <qualitative-label>
Condition met

$$$$
>  <compound-string>
Cn1cc(/C=C/C(=O)NS(=O)(=O)c2cc(F)c(F)cc2F)c2c(Oc3ccc(Cl)cc3)cccc21

>  <test-system>
Prostaglandin E2 receptor EP3 subtype (Homo sapiens)

>  <qualitative-label>
Condition met

$$$$
>  <compound-string>
Cn1cc(/C=C/C(=O)NS(=O)(=O)c2ccc(Cl)c(Cl)c2)c2c(Oc3ccc4ccccc4c3)cccc21

>  <test-system>
Prostaglandin E2 receptor EP3 subtype (Homo sapiens)

>  <qualitative-label>
Condition not met

$$$$
>  <compound-string>
Cn1cc(/C=C/C(=O)NS(=O)(=O)c2c(F)cccc2F)c2c(Oc3ccc4ccccc4c3)cccc21

>  <test-system>
Prostaglandin E2 receptor EP3 subtype (Homo sapiens)

>  <qualitative-label>
Condition met

$$$$
>  <compound-string>
Cn1cc(/C=C/C(=O)NS(=O)(=O)c2ccc(Cl)cc2Cl)c2c(Oc3ccc4ccccc4c3)cccc21

>  <test-system>
Prostaglandin E2 receptor EP3 subtype (Homo sapiens)

>  <qualitative-label>
Condition not met

$$$$
>  <compound-string>
Cn1cc(/C=C/C(=O)NS(=O)(=O)c2ccc(F)c(F)c2)c2c(Oc3ccc(F)c(Cl)c3)cccc21

>  <test-system>
Prostaglandin E2 receptor EP3 subtype (Homo sapiens)

>  <qualitative-label>
Condition not met

$$$$
>  <compound-string>
Cn1cc(/C=C/C(=O)NS(=O)(=O)c2cc(F)c(F)cc2F)c2c(Oc3ccc(Cl)c(Cl)c3)cccc21

>  <test-system>
Prostaglandin E2 receptor EP3 subtype (Homo sapiens)

>  <qualitative-label>
Condition not met

$$$$
>  <compound-string>
Cn1cc(/C=C/C(=O)NS(=O)(=O)c2cc(Cl)c(Cl)s2)c2c(Oc3ccc4ccccc4c3)cccc21

>  <test-system>
Prostaglandin E2 receptor EP3 subtype (Homo sapiens)

>  <qualitative-label>
Condition not met

$$$$
>  <compound-string>
Cn1cc(/C=C/C(=O)NS(=O)(=O)c2ccc(F)cc2F)c2c(Oc3ccc4ccccc4c3)cccc21

>  <test-system>
Prostaglandin E2 receptor EP3 subtype (Homo sapiens)

>  <qualitative-label>
Condition not met

$$$$
>  <compound-string>
Cn1cc(/C=C/C(=O)NS(=O)(=O)c2ccc(F)c(F)c2)c2c(Oc3cnc4ccccc4n3)cccc21

>  <test-system>
Prostaglandin E2 receptor EP3 subtype (Homo sapiens)

>  <qualitative-label>
Condition not met

$$$$
>  <compound-string>
Cn1cc(/C=C/C(=O)NS(=O)(=O)c2cc(F)c(F)cc2F)c2c(Oc3ccc(F)c(F)c3)cccc21

>  <test-system>
Prostaglandin E2 receptor EP3 subtype (Homo sapiens)

>  <qualitative-label>
Condition met

$$$$
>  <compound-string>
Cn1cc(/C=C/C(=O)NS(=O)(=O)c2ccc(F)c(F)c2)c2c(Oc3ccc(Cl)c(Cl)c3)cccc21

>  <test-system>
Prostaglandin E2 receptor EP3 subtype (Homo sapiens)

>  <qualitative-label>
Condition not met

$$$$
>  <compound-string>
Cn1cc(/C=C/C(=O)NS(=O)(=O)c2cc(F)c(F)cc2F)c2c(Oc3ccc(F)c(Cl)c3)cccc21

>  <test-system>
Prostaglandin E2 receptor EP3 subtype (Homo sapiens)

>  <qualitative-label>
Condition not met

$$$$
>  <compound-string>
Cn1cc(/C=C/C(=O)NS(=O)(=O)c2cc(Cl)cc(Cl)c2)c2c(Oc3ccc4ccccc4c3)cccc21

>  <test-system>
Prostaglandin E2 receptor EP3 subtype (Homo sapiens)

>  <qualitative-label>
Condition not met

$$$$
>  <compound-string>
Cn1cc(/C=C/C(=O)NS(=O)(=O)c2cccc(Cl)c2)c2c(Oc3ccc4ccccc4c3)cccc21

>  <test-system>
Prostaglandin E2 receptor EP3 subtype (Homo sapiens)

>  <qualitative-label>
Condition not met

$$$$
>  <compound-string>
Cn1cc(/C=C/C(=O)NS(=O)(=O)c2ccc(F)c(F)c2)c2c(Oc3ccc(Cl)cc3F)cccc21

>  <test-system>
Prostaglandin E2 receptor EP3 subtype (Homo sapiens)

>  <qualitative-label>
Condition not met

$$$$
>  <compound-string>
Cn1cc(/C=C/C(=O)NS(=O)(=O)c2ccccc2Cl)c2c(Oc3ccc4ccccc4c3)cccc21

>  <test-system>
Prostaglandin E2 receptor EP3 subtype (Homo sapiens)

>  <qualitative-label>
Condition met

$$$$
